# SYSTEM_UNDER_TEST: PRKCA (human) (UniProt P17252)
# ASSAY_REMARKS: radiometric filter-binding kinase assay
# EXPERIMENTAL_SETUP: compound 1.0 µM
MEASURE_NAME: residual activity (%)

COMPOUND	residual activity (%)
CC1=C(CO)C(=O)O[C@@H]([C@@H](C)[C@H]2CC[C@H]3[C@@H]4C[C@H]5O[C@]56[C@@H](O)C=CC(=O)[C@]6(C)C4CC[C@]23C)C1 (stereo partly specified)	111
NC(=O)Nc1ccc2c(c1)/C(=C/c1cc(-c3cccnc3)c[nH]1)C(=O)N2	83
Cc1cccc(Nc2nn(C)c3ncnc(N)c23)c1	102
Cc1cccc(-c2nn(C(=S)Nc3ccccc3)cc2-c2ccnc3ccccc23)n1	102
O=C(NCCCNc1nc(Nc2cccc(CN3CCOCC3)c2)ncc1C1CC1)C1CCC1	93

[A] CCNc1nc(Nc2cc(F)c(C(=O)N3CCOCC3)cc2OC)ncc1C(F)(F)F
[B] O=C(O)c1ccc(-c2c[nH]c3ncc(-c4ccccc4)cc23)cc1C1CCCC1
Given the listed items, does A or B have the lesser reported residual activity? # reply format: chosen label B

====

# SYSTEM_UNDER_TEST: UniProtKB Q15303
# Sequence (Q15303 whole entry, looked up): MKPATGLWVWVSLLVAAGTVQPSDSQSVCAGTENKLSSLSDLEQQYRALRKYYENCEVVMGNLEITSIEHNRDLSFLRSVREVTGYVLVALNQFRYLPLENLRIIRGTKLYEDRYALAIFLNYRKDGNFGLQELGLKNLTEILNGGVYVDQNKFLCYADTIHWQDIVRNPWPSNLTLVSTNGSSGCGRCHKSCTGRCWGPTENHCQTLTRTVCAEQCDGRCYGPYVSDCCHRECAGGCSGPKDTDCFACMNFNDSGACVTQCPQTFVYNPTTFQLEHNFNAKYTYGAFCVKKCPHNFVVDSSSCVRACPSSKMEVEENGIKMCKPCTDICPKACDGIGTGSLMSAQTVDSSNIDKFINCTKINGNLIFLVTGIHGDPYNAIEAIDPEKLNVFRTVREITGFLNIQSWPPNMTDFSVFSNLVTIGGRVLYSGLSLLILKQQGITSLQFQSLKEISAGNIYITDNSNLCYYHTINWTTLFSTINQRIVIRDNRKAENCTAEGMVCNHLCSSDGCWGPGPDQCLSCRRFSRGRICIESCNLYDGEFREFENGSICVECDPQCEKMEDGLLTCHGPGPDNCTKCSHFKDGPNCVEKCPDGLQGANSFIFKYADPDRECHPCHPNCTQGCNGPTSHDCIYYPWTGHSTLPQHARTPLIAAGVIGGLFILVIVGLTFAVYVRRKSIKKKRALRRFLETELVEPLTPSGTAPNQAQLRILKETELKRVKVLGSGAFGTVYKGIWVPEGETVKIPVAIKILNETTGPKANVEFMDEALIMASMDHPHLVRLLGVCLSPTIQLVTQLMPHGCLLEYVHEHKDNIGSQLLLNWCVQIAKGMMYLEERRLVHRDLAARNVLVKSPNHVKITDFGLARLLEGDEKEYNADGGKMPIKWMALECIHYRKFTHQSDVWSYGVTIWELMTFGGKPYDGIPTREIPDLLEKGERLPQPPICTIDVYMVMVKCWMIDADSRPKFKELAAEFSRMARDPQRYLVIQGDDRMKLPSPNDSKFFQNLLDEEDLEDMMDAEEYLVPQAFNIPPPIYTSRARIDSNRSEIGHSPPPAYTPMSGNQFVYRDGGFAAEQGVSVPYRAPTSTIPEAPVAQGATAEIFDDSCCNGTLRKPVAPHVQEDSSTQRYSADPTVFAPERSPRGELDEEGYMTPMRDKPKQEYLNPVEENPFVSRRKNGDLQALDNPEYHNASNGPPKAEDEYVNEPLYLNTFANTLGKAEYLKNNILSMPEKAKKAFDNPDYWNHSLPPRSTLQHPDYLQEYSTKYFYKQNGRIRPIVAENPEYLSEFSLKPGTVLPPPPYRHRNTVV
# ASSAY_REMARKS: radiometric filter-binding kinase assay
# EXPERIMENTAL_SETUP: compound 0.1 µM
MEASURE_NAME: residual activity (%)

Here's what some known entries look like.
COMPOUND	UNIT_INFO	residual activity
COc1ccc(-n2ncc3cnc(Nc4cc(OC)c(OC)c(OCCCN5CCN(C)CC5)c4)nc32)cc1	%	60
NC1(c2ccc(-c3nc4ccn5c(=O)[nH]nc5c4cc3-c3ccccc3)cc2)CCC1	%	111
Cc1ccc(Sc2cnc(Nc3cccc(Br)n3)s2)cc1C(=O)N1CCN(C(=O)CN)CC1	%	69
COc1cc(O)c2c(c1)[C@H]1OC1C[C@H](O)[C@H](O)C(=O)/C=C\C[C@H](C)OC2=O (some centres not stated)	%	104
Cc1cccc(-c2nn(C(=S)Nc3ccccc3)cc2-c2ccnc3ccccc23)n1	%	104

[P] CC1=C(CO)C(=O)O[C@@H]([C@@H](C)[C@H]2CC[C@H]3[C@@H]4C[C@H]5O[C@]56[C@@H](O)C=CC(=O)[C@]6(C)C4CC[C@]23C)C1 (some centres not stated)
[Q] CNC(=O)C1[C@H]2O[C@@](C)([C@@H]1N)n1c3ccccc3c3c4c(c5c6ccccc6n2c5c31)C(=O)NC4 (some centres not stated)
[R] C=CC(=O)N1CCC[C@@H](n2nc(-c3ccc(Oc4ccccc4)cc3)c3c(N)ncnc32)C1
I would appreciate it if you could sort these 3 compounds by residual activity, starting from the smallest number. Present the labels in the sequence the task asks for. R, Q, P

====

# SYSTEM_UNDER_TEST: UniProt Q16644
# Sequence (Q16644 whole entry, looked up): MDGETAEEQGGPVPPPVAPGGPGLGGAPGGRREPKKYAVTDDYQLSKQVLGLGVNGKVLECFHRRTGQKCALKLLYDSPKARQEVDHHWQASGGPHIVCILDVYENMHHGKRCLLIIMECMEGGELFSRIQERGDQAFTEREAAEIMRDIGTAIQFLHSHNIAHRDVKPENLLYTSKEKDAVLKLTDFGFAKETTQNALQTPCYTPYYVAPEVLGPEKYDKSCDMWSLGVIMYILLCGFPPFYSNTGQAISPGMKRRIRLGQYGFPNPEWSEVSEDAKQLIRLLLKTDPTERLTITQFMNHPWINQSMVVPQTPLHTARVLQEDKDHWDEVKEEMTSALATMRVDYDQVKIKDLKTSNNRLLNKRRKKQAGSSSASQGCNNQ
# ASSAY_REMARKS: radiometric filter-binding kinase assay
# EXPERIMENTAL_SETUP: compound 0.01 µM
MEASURE_NAME: residual activity (%)

MOLECULE	SYSTEM_UNDER_TEST	residual activity, %
CNC(=O)C1[C@H]2O[C@@](C)([C@@H]1N)n1c3ccccc3c3c4c(c5c6ccccc6n2c5c31)C(=O)NC4 (stereo not given in full)	UniProt Q16644	91
COc1cc(O)c2c(c1)[C@H]1OC1C[C@H](O)[C@H](O)C(=O)/C=C\C[C@H](C)OC2=O (stereo not given in full)	UniProt Q16644	105
COc1ccc(N(C(=O)Nc2c(C)cccc2C)c2cc(Nc3ccc(N4CCN(C)CC4)cc3)ncn2)c(OC)c1	UniProt Q16644	96
CNc1nc(-c2ccc3c(N)n[nH]c3c2)cc(N2C[C@@H](C(=O)NC3CCCCC3)CC[C@H]2C)n1	UniProt Q16644	112
O=C(Nc1nc2cc(C(F)(F)F)cc(NC3CC3)n2n1)c1cccnc1	UniProt Q16644	97

This collection of values is drawn from the kinase profiling compilation of Christmann-Franck et al. (2016).
